B1: library; numbered along this chain (parent)
chain: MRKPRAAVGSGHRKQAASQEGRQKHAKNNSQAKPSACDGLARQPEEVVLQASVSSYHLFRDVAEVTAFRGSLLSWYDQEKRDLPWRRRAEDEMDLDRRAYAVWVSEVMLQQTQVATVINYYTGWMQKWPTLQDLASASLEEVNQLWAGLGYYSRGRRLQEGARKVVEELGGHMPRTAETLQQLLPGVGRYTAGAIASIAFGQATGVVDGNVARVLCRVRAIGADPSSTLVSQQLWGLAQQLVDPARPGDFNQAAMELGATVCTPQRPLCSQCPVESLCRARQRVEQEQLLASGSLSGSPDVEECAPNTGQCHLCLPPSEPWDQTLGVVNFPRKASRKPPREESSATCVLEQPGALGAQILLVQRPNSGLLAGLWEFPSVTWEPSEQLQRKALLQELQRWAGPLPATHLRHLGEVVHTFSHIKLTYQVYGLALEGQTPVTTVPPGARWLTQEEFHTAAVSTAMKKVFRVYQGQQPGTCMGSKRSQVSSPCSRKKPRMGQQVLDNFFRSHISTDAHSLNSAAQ

Variants of: B1
Assay: 8OG:A repair function score (normalized; synonymous = 0, nonsense = -1) (normalized log-likelihood score); higher = more repair activity (WT-like);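 also: cells sorted at 72 h after reporter transfection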
Settings: with 8OG:A DNA repair reporter (GFP) in HEK-293 MUTYH KO cells
Please enter YES where 8OG:A repair function score is greater than or equal to -0.06, and NO where it is lower.

Prompt: 8OG:A repair function score >= -0.06 for `A245H` ?
Completion: NO

Prompt: 8OG:A repair function score >= -0.06 for `Q286N` ?
Completion: YES

Prompt: 8OG:A repair function score >= -0.06 for `A345L` ?
Completion: YES

Prompt: 8OG:A repair function score >= -0.06 for `E167M` ?
Completion: YES

Prompt: 8OG:A repair function score >= -0.06 for `L411T` ?
Completion: NO

Prompt: 8OG:A repair function score >= -0.06 for `R266G` ?
Completion: NO

Prompt: 8OG:A repair function score >= -0.06 for `H454M` ?
Completion: NO

Prompt: 8OG:A repair function score >= -0.06 for `H312K` ?
Completion: YES

Prompt: 8OG:A repair function score >= -0.06 for `V468D` ?
Completion: NO

Prompt: 8OG:A repair function score >= -0.06 for `V500M` ?
Completion: YES

Prompt: 8OG:A repair function score >= -0.06 for `P383R` ?
Completion: YES

Prompt: 8OG:A repair function score >= -0.06 for `F505S` ?
Completion: YES

Prompt: 8OG:A repair function score >= -0.06 for `V47S` ?
Completion: NO

Prompt: 8OG:A repair function score >= -0.06 for `F504S` ?
Completion: YES

Prompt: 8OG:A repair function score >= -0.06 for `C216I` ?
Completion: NO

Prompt: 8OG:A repair function score >= -0.06 for `D512S` ?
Completion: YES

Prompt: 8OG:A repair function score >= -0.06 for `P339R` ?
Completion: NO

Prompt: 8OG:A repair function score >= -0.06 for `L268E` ?
Completion: NO

Prompt: 8OG:A repair function score >= -0.06 for `Q110P` ?
Completion: NO

Prompt: 8OG:A repair function score >= -0.06 for `L360Y` ?
Completion: NO

Prompt: 8OG:A repair function score >= -0.06 for `N366D` ?
Completion: YES

The reported measurements were obtained from the supplement of paper PMC11908140.
